- TEST DESCRIPTION: Plasma PK of 450 mg capsules in fasted and fed patients, dose expansion
- Type: in vivo, human
- STATED CONDITIONS: human, plasma, oral, 450 mg, 450 mg QD capsules, Dose Expansion-Fed; Geometric Mean (GeoCV %)
REPORTED ENDPOINT: half-life (h)

INSERT INTO measurements (smiles_structure, reported_endpoint, readout_number) VALUES
  ('CN(C)C(=O)/C=C/CNCCOc1ccc(/C(=C(/CC(F)(F)F)c2ccccc2)c2ccc3[nH]nc(F)c3c2)cn1', 'half-life', 8.83);

---

- TEST DESCRIPTION: Plasma PK of H3B-6545 capsules in fasted patients, phase 1 dose escalation
- Format: in vivo, human
- STATED CONDITIONS: female, human, plasma, oral, 300 mg, Cycle 1 Day 1; 300 mg QD capsules, fasted patients; Geometric Mean (GeoCV %); read-out: AUC0-24
REPORTED ENDPOINT: AUC(0-t) (ng·h/mL)

INSERT INTO measurements (smiles_structure, reported_endpoint, readout_number) VALUES
  ('CN(C)C(=O)/C=C/CNCCOc1ccc(/C(=C(/CC(F)(F)F)c2ccccc2)c2ccc3[nH]nc(F)c3c2)cn1', 'AUC(0-t)', 9480);
